# self-cleavage kobs at 160 uM GlcN6P annotations
B1: glmS ribozyme (parent)
chain: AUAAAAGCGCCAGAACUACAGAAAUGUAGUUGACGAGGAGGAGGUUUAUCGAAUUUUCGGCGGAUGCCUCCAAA

variants of: B1; experiment: self-cleavage kobs at 160 uM GlcN6P; higher = faster cleavage; RNA array; conditions: with glucosamine-6-phosphate
Fewer inactive variants are shown than the library holds.

{"columns": ["Polymer sequence", "self-cleavage kobs at 160 uM GlcN6P"],
 "data": [
  ["AUAAAGGCGCCAGAACUACAGAAAUGUAGUUGACGAGGAGGAGGUUUAUCGAAUUUACGGCGGAUGCCUCCAAA", "< 1e-05 s⁻¹"],
  ["AUAAAAGCGCCAGAACUACAGAAAUGUAGUUGACGAGGAGGAGGUAUAUCGAAUUUUCGGCGGAUGCCUCUAAA", "0.000232 s⁻¹"],
  ["AUAAAAGCGCCAGAACUACAGAAAUGUAGUUGACGAGGAGGAGGUUUUUCGACUUUUCGGCGGAUGCCUCCAAA", "< 1e-05 s⁻¹"],
  ["AUAAAAGCGCCAGAACUACAGAAAUGUAGAUGACAAGGAGGAGGUUUAUCGAAUUUUCGGCGGAUGCCUCCAAA", "< 1e-05 s⁻¹"],
  ["AUAAAGGCGCCAGAACUACAGAAAUGUAGUUGGCGAGGAGGAGGUUUAUCGAAUUUUCGCCGGAUGCCUCCAAA", "< 1e-05 s⁻¹"],
  ["AUAAAAGCGCGAGGACUACAGAAAUGUAGUUGACGAGGAGGAGGUUUAUCGAAUUUUCGGCGGAUGCCUCCAAA", "< 1e-05 s⁻¹"],
  ["AUAAAAGCGCCAGAACUACAGAAAUGUAGUUGACGAGGAAGAGGUUUAUCGAAUUUUCGGCUGAUGCCUCCAAA", "< 1e-05 s⁻¹"],
  ["AUAAAAGCGCCAGAACUACAGAAAUGUAGGUGACGGGGAGGAGGUUUAUCGAAUUUUCGGCGGAUGCCUCCAAA", "< 1e-05 s⁻¹"],
  ["AUAAAAGGGCCAGAACUACAGAAAUGUAGUUGACGAGGAGGAGGUUUAUCUAAUUUUCGGCGGUUGCCUCCAAA", "< 1e-05 s⁻¹"],
  ["AUAAAAGCGCCAGAACUACAGAAAUGUAGUUGACCAGGAGGUAGUUUAUCGUAUUUUCGGCGGAUGCCUCCAAA", "< 1e-05 s⁻¹"],
  ["AUAAAAGCGCCAGAAGUACAGAAAUGUAGUUGACGAGGAGGAGGUUUAUCGAAUAUUCGGCGGAUGCCUCCAAA", "0.000313 s⁻¹"],
  ["AUAAAAGCGACAGAACUACAGAAAUGUAGUUGACGAGGACGAGGUUUAUCGAAUUUUCGGCGGAUGCCUCCAAA", "< 1e-05 s⁻¹"],
  ["AUAAAAGCGCCCGAACUACAGAAAUGUAGUUGACGAGGAAGAGGUUUAUCGAAUUUUCGGCGGAUGCCUCCAAA", "0.000305 s⁻¹"],
  ["AUAAAAGCGCCAGAACUACAGAAAUGUAGUUGACGAGGAGGAGGUUUAUCGAAUUUUAGGCGGAUGCAUCCAAA", "4.01e-05 s⁻¹"],
  ["AUAAAAGUGACAGAACUACAGAAAUGUAGUUGACGAGGAGGAGGUUUAUCGAAUUUUCGGCGGAUGCCUCCAAA", "< 1e-05 s⁻¹"],
  ["AUAAAAGCGCCAUAACUACAGAAAUGUAGUUGACGAGGAGGCGGUUUAUCGAAAGUUCGGCGGAUGCCUCCAAA", "< 1e-05 s⁻¹"],
  ["AUAAAAGCGCCAGAACUACAGAAAUGUAGCUGACGAGGAGGAGGUUUAUCGAAUUUUCGGCUGAUGCCUCCAAA", "< 1e-05 s⁻¹"],
  ["AUAAAAGCGCCAGAACUACAGAAAUGUAGUUGACGAGGAGGAUGUUUAUCGAAUUUUCGGAGGAUGCCUCCAAA", "< 1e-05 s⁻¹"],
  ["AUAAAAGCGCCAGAAUUACAGAAAUGUAGUUUACGAGGAGGAGGUUUAUCGAAUUUUCGGCGGAUGCCUACAAA", "< 1e-05 s⁻¹"],
  ["AUAAAAGCGCCAGAACUACAGAAAUGUAGUUGACGACGAGGAGGUUUAUCGAAUUUUCGGCGGAUGACUCCAAA", "< 1e-05 s⁻¹"],
  ["AUAAAAGCGCCAGAACUACAGAAAUGUAGUUGACGAGGAGGAGGUUUAGAGAAUUUUCGGCGGAUGCCUCCAAA", "< 1e-05 s⁻¹"],
  ["AUAAAAGCGCCCGAUCUACAGAAAUGUAGUUGACGAGGAGGAGGUUUAUCGAAUUUUCGGCGGAUGCCUCCAAA", "0.000208 s⁻¹"]
]}
